- Tested on: NIH3T3 (Mouse embryo fibroblast cell line)
- EXPERIMENT: MTT cytotoxicity test, healthy NIH3T3 cells
- Type: cell-based
- CONDITION SUMMARY: MTT, 24 h incubation, healthy cells
pIC50: −log10 of the molar value.
QUANTITY: pIC50

IN: Which pIC50 is reported for this compound? N.N.[Cl][Pt][Cl] [Cisplatin, reference compound]
OUT: < 3.00

====

- System: C6 cell line
- EXPERIMENT: Flow cytometric analysis (Annexin V-FITC/PI)
- Format: cell-based, Rat
- CONDITION SUMMARY: C6, IC50 (0.03 mM), 24 h
QUANTITY: Q1 percentage of necrotic cells (%)
The reply should contain only the number, in %.

Please review the following examples before continuing.
MOLECULE	MEASURE UNIT	Q1 percentage of necrotic cells
CC1CCN(c2ccc(C=NNC(=O)CSc3nc4cc(Cl)ccc4s3)cc2)CC1	%	6.9
COc1ccc(N2CCN(c3ccc(C=NNC(=O)CSc4nc5cc(Cl)ccc5s4)cc3)CC2)cc1	%	9.8
COc1ccc2sc(SCC(=O)NN=Cc3ccc(N4CCCC(C)C4)cc3)nc2c1 (stereo not shown)	%	8.6

Shifting focus to the molecule that follows.
IN: # lookup: Q1 percentage of necrotic cells of N.N.[Cl][Pt][Cl] [Cisplatin, reference compound]
OUT: 3.5

====

- System: MCF-7 (Human breast adenocarcinoma cell line)
- EXPERIMENT: MTT cytotoxicity test, MCF-7
- Type: cell-based
- CONDITION SUMMARY: 24 h incubation
QUANTITY: pIC50
By convention, pIC50 is the negative base-10 log of a molar concentration.

IN: Using the record for N.N.[Cl][Pt][Cl] [Cisplatin, reference compound] , report its pIC50.
OUT: 4.30

====

- Tested on: A549 (Human lung adenocarcinoma epithelial cell line)
- EXPERIMENT: MTT cytotoxicity test, A549
- Type: cell-based
- CONDITION SUMMARY: Homo sapiens, A549, 24 h incubation
QUANTITY: IC50 (µM)
Entry rule: numbers only, all in µM.

# example entries with known answers
COMPOUND	IC50 / µM
COc1ccc(N2CCN(c3ccc(C=NNC(=O)CSc4nc5cc(Cl)ccc5s4)cc3)CC2)cc1	30
CC1CCCN(c2ccc(C=NNC(=O)CSc3nc4cc(Cl)ccc4s3)cc2)C1 (stereo not shown)	520
COc1ccc2sc(SCC(=O)NN=Cc3ccc(N4CCC(C)CC4)cc3)nc2c1	490

Pending compound:
IN: Consider the compound shown here: CC1CCCCN1c1ccc(C=NNC(=O)CSc2nc3cc(Cl)ccc3s2)cc1 (stereo not shown) What is its recorded IC50?
OUT: 1000

====

- Tested on: A549 (Human lung adenocarcinoma epithelial cell line)
- EXPERIMENT: MTT cytotoxicity test, A549
- Format: cell-based
- CONDITION SUMMARY: 24 h incubation
QUANTITY: pIC50
Just the number, please; pIC50 means minus log10 of the concentration in mol/L.

IN: Given the entry N.N.[Cl][Pt][Cl] [Cisplatin, reference compound] , report its measured pIC50.
OUT: 4.22

====

- Tested on: C6 (Rat brain glioma cell line)
- EXPERIMENT: MTT cytotoxicity test, C6
- Type: cell-based
- CONDITION SUMMARY: Rattus norvegicus, Glioma cell, 24 h incubation
QUANTITY: IC50 (µM)
The answer is to be given in µM; state only the numeric part.

Some molecules with recorded IC50:
MOLECULE	MEASURE UNIT	IC50
COc1ccc2sc(SCC(=O)NN=Cc3ccc(N4CCC(C)CC4)cc3)nc2c1	µM	100
COc1ccc2sc(SCC(=O)NN=Cc3ccc(N4CCCC(C)C4)cc3)nc2c1 (stereo not shown)	µM	30
CC1CCCN(c2ccc(C=NNC(=O)CSc3nc4cc(Cl)ccc4s3)cc2)C1 (stereo not shown)	µM	100
CC1CCN(c2ccc(C=NNC(=O)CSc3nc4cc(Cl)ccc4s3)cc2)CC1	µM	30
CC1CCCCN1c1ccc(C=NNC(=O)CSc2nc3cc(Cl)ccc3s2)cc1 (stereo not shown)	µM	100

IN: What does the data say about its IC50? Entry: COc1ccc(N2CCN(c3ccc(C=NNC(=O)CSc4nc5cc(Cl)ccc5s4)cc3)CC2)cc1
OUT: 30

IN: Looking for the measured IC50 of O=C(CSc1nc2cc(Cl)ccc2s1)NN=Cc1ccc(N2CCCCC2)cc1 , can you help?
OUT: 100
